tested on: XF 498 CNS; experiment: NCI tumour cell line growth inhibition, 48 h
I'd appreciate it if you could supply TGI values for the items below.

Sample NC(=O)c1ccc(Cl)c([N+](=O)[O-])c1 ; TGI observed: > 100 µM

Sample O=C1NC2C(O)CCCCC2C12CCCCC2 (stereo not drawn) ; TGI observed: > 100 µM

Sample C=C1C[C@@H]2C[C@@H](C)CC(O)[C@]2(CCCN)C1O (stereo partly drawn) ; TGI observed: > 100 µM

Sample COC(=O)CC[C@]12C[C@]13CC[C@]1(C)C4C(C)C[C@]5(CC(C)C(=O)O5)OC4CC1(C)C3CCC2C(C)(C)O (stereo partly drawn) ; TGI observed: 87.6 µM

Sample O=c1c2cc3ccccc3n2c(=O)c2cc3ccccc3n12 ; TGI observed: > 100 µM

Sample COC(=O)N/N=C(\C)CC(=O)Nc1ccc(Cl)cc1 ; TGI observed: > 100 µM

Sample CCOC(=O)CN1C(=O)c2cc([N+](=O)[O-])cc3cc([N+](=O)[O-])cc(c23)C1=O ; TGI observed: > 100 µM

Sample O=[N+]([O-])c1ccc(-c2csc(=[N+]3CCCCC3)s2)cc1 ; TGI observed: 48.1 µM

Sample CC(=O)Oc1ccc2c(c1)C(=O)c1nc(C)c(C)nc1C2=O ; TGI observed: > 100 µM

Sample COc1ccc([C@@H]2OC(=O)C3C2C(=O)O[C@H]3c2ccc(OC)c(OC)c2)cc1OC (stereo partly drawn) ; TGI observed: > 100 µM

Sample CO[C@@]1(c2ccccc2)O[C@H]2OCCC2[C@H]1c1ccc(Cl)cc1 (stereo partly drawn) ; TGI observed: 69.3 µM

Sample CC(C)(C)N=NC(C)(C)N=C=O ; TGI observed: > 100 µM

Sample CC(C)(C)c1ccnc(N=C2N=C(Nc3cc(C(C)(C)C)ccn3)c3ccccc32)c1 ; TGI observed: 38.6 µM
